Values of intrinsic clearance, rat liver microsomes strictly less than 40 L/h/kg map to TRUE, and values of at least 40 L/h/kg map to FALSE.

| structure_smiles | label |
| --- | --- |
| CC(C)(C)OC(=O)N1CCCN1C(=O)c1cc2cc(Cl)ccc2[nH]1 | FALSE |
| CCn1ncc(CN2CCC(c3nc(N(C)C)ncc3-c3ccc(OC)cc3)CC2)c1C | FALSE |
| Cn1cc(C(=O)O)c(C2CCCCC2)n1 | TRUE |
| CN(C)C1(CNC(=O)Cn2ccc(=O)cc2)CCCCC1 | TRUE |
| CCc1ccc(NC(=O)C2CCN(c3ccc4nncn4n3)CC2)cc1 | TRUE |
| CC(C)CC(=O)N1CCC(Cc2cccc(-c3cncnc3)c2)(C(=O)NC(C)C)CC1 | FALSE |

###

Reported MDR1-MDCK efflux ratio values follow for various compounds

| structure_smiles | MDR1-MDCK efflux ratio |
| --- | --- |
| Cc1cc(-c2cnn(CCNC(=O)c3sc(C)nc3C)c2C2CC2)on1 | 5.26 |
| CCn1ccc2cc(C(=O)N3CCN(c4ccc(C)cc4)C(=O)C3)ccc21 | 2.47 |
| CCC(=O)NCc1cc(C2CC2)n(C2CCCC2)n1 | 1.05 |
| CCCn1cnnc1Cn1ccnc1-c1ccc2occc2c1 | 93.8 |
| CCc1cc(=O)[nH]c(SCCCCC2CCOCC2)n1 | 1.12 |
| COc1ccc(-c2nc(CC(N)=O)sc2C)cc1.Cl | 0.246 |
| Cc1nc(NCC(C)(C)c2ccccc2)n(C)n1 | 1.07 |
| C[C@@H](CO)Nc1nc(C(F)(F)F)nc2[nH]cnc12 | 6.72 |
| CN(Cc1nncn1C)C1CCN(c2ccccc2F)CC1 | 2.06 |
| CC(C)(C)C(=O)N1CCN(C(=O)CCN2CCOC2=O)CC1 | 64.9 |
| CC(C)c1nnc(NCc2ccn(C)c2)o1 | 0.768 |
| Cn1cccc(C(=O)NCc2nc(C(C)(C)C)no2)c1=O | 1.44 |
| O=C(NCCCn1ccnc1)N1CCC12CCC2 | 30.5 |
| Cn1cc(C(=O)N2CCC(c3cc(C(F)(F)F)c4c(n3)CCNC4=O)CC2)ccc1=O | 0.752 |
| Cc1cc(Cn2cnc(C#N)c2C#N)c2ccccc2n1 | 2.84 |
| Clc1snnc1CN1CCCN(c2nc3ccccc3[nH]2)CC1 | 13.1 |
| Cc1ccc(-c2cc(NC(=O)CN3CCOCC3)on2)cc1 | 0.561 |
| O=C(O)CCC(=O)Nc1ccccc1-c1nc2ccccc2[nH]c1=O | 0.345 |
| O=C(NC1CCCCC1)C1=CCN(C(=O)C2CC2)C1 | 2.4 |
| CCc1cnc(C)nc1-c1ccc(-c2ccn[nH]2)cc1 | 0.85 |
| CCCn1cc(C(=O)N2CCC(c3n[nH]cc3C(=O)N(C)Cc3ccccc3)CC2)cn1 | 9.45 |
| CC(C)CCNC(=O)CSc1nc2ccccc2[nH]1 | 3.98 |
| Fc1cccc(CCNCc2cc(-c3ccccc3)cn3nnnc23)c1 | 0.71 |
| COC(=O)[C@@H]1C[C@H](O)CN1CCc1ccccc1F | 0.726 |
| Cc1nc(CN(C)C(=O)C2c3ccccc3-c3ccccc32)no1 | 1.09 |
| Cc1ccccc1S(=O)(=O)Nc1c(C)ccnc1Cl | 0.795 |
| Cn1nc(-c2cn(Cc3ccc(CO)cc3)nn2)c2c(Cl)cccc21 | 5.12 |
| CC(C)c1nc(CCn2ccnc2-c2ccoc2)cs1 | 0.661 |
| CC(C)CN1CC[C@H](c2nc3ccc(C#N)cc3[nH]2)C1 | 1.46 |
| Cc1cc(C)c(-n2cccn2)c(-c2cn(C[C@@H]3CCCO3)nn2)c1 | 1.18 |
| Cc1cc(N(CCO)CCCO)ncc1Br | 0.766 |
| O=C1Nc2ccccc2O[C@H]2C[C@@H]1N(Cc1cccnc1)C2 | 17.7 |
| COc1cccc(-n2c(S)nnc2COc2cccc3ccccc23)c1 | 1.07 |
| Cc1cnccc1-c1cnc(N(C)C)nc1-c1ccco1 | 0.636 |
| COC(=O)[C@@H]1C[C@H](O)CN1CC#Cc1ccc(Cl)cc1 | 0.681 |
| Cc1c(C(=O)Nc2ccc(N3C[C@@H](C)O[C@H](C)C3)nc2)cccc1-c1ccc(OC(F)(F)F)cc1 | 1.16 |
| CCn1nccc1CNc1nnc(-c2ccc(OC)cc2)o1 | 1.89 |
| C[C@@H]1NC(=O)N(CCC2Cc3ccccc3C2)C1=O | 0.771 |
| CN1CCN(c2ccc(NC(=O)c3ccc(S(=O)(=O)N4CCCc5ccccc54)cc3)cc2)CC1 | 8.78 |
| Cc1noc(OCC(=O)N2CCCCCC2)n1 | 1.01 |
| O=C(CN1CCC(c2ccccc2)CC1)N1CCNC1=O | 1.06 |
| Cc1cccc(OC[C@@]2(O)CN(C[C@]3(O)CC[C@@H](C(C)(C)C)CC3)CC[C@@H]2O)c1 | 1.33 |
| COc1ccc2nc(C(=O)Nc3cnc4c(cnn4C(C)C)c3)ccc2c1 | 0.464 |
| Cc1nc(-c2ccccc2)c(C(=O)Nc2ccc(Cl)c(Cl)c2)s1 | 0.73 |
| CC(=O)Nc1ccc2nc(C)cc(O)c2c1 | 1.55 |
| Cn1ccnc1CNc1cc(Br)ccc1-n1cccn1 | 0.841 |
| O=C(NCc1ccc(F)cc1)C1CCN(C(=O)/C=C/c2ccc(F)cc2)CC1 | 6.14 |
| Cc1cccnc1NC(=O)CCn1cnc2ccccc21 | 15.9 |

###

- test_settings: pH 6.8
Class y: aqueous solubility at least 40 µg/mL. Class n: aqueous solubility below 40 µg/mL.

| compound | label |
| --- | --- |
| O=C(Cn1nc2n(c1=O)-c1ccccc1C1=NCCN12)N1CCc2ccccc21 | n |
| Cc1cc(F)ccc1NC(=O)c1cccc2cccnc12 | n |
| CCN1CCC(Nc2nc(C)cc(C)c2C#N)CC1 | y |
| Cc1nnc(-c2ccc3occ(-c4ccc(S(C)=O)cc4)c3c2)o1 (stereo not given) | y |
| Cc1cc(C)cc(Oc2cc(C#N)ccn2)c1 | n |
| Cn1c(-c2ccc(F)cc2)cnc1NC(=O)CCC(=O)N1CC(=O)Nc2ccccc21 | y |
| O=C(c1ccncc1)N1CCC(c2cnccn2)CC1 | y |
| CCc1nc2ccccc2n1CC(=O)Nc1ncc(C)s1 | y |
| CC(C)c1nnc(-c2ccc(-c3ccccc3)nc2)n1-c1cccc2nonc12 | y |
| O=C(Nc1ccccc1)N1CCCc2cnc(N3CCOCC3)nc21 | n |
| O=C(NCCNc1ncccc1C(F)(F)F)c1cnc2ccccn2c1=O | y |
| O=C(NCC(F)(F)F)c1ccncc1 | n |
| O=C1N[C@@H]2CCN(C(=O)c3ccc(-c4ccccc4)cc3)[C@@H]2C(=O)N1c1ccc(F)cc1 | n |
| Cc1nnc(NCC(=O)N2CCc3sccc3C2)c(C#N)c1C | n |
| CN(c1ncc(Br)cn1)C1CCS(=O)CC1 (stereo not given) | y |
| COc1ccccc1-c1ccc(CC2(C(=O)NC3CC3)CCOCC2)cc1 | y |
| CCCN1CCCN(c2ncccc2C#N)CC1 | n |
| CC(C)C(=O)N1CC(Cc2nccc3ccn(C)c23)C1 | y |
| CN1CCN(c2ccc(NC(=O)c3ccccc3Cl)nc2)CC1 | y |
| Cc1cc(C)c(C#N)c(N2CCN(CC(=O)Nc3ccccc3Cl)CC2)n1 | n |
| C=CCn1cnc2c(Cl)cc(-c3ccc(C(=O)NC4CC4)o3)cc21 | n |
| Cc1nnc(N2CCCSCC2)c(C#N)c1C | n |
| COc1ccc(C2=N/C(=C/c3cc4ccccc4n3C(C)=O)C(=O)O2)cc1 | n |
| NC(=O)c1sc2cc(F)ccc2c1Cl | n |
| COCc1cccc(NC(=O)c2cn(C)c3ccccc23)c1 | n |

###

| compound | fraction unbound, human plasma |
| --- | --- |
| CNC(=O)c1cccc(NC(=O)N2CCC(Oc3ccccc3Cl)CC2)c1 | 0.117 |
| NC1CCCC(C(=O)N2CCC(c3c[nH]c4ncccc34)CC2)C1 (stereo unspecified) | 0.566 |
| NC1CC(NC(=O)c2ccc(-c3cn[nH]c3)cn2)C12CCC2 (stereo unspecified) | 0.513 |
| CCCS(=O)(=O)Nc1ccc(F)c(C(=O)c2c[nH]c3ncc(-c4ccc(Cl)cc4)cc23)c1F | 0.00025 |
| CC(=O)N1CCN(c2c(Cl)cccc2NC(=O)COc2ccccc2Cl)CC1 | 0.0181 |
| CC(=O)Nc1ccc(C(=O)N2CCCCC2c2nc(N)ncc2-c2ccc(Cl)cc2)cc1 (stereo unspecified) | 0.0395 |
| NC1CCCC(C(=O)Nc2ccc3[nH]ncc3c2)C1 (stereo unspecified) | 1 |
| O=C(NCCc1ccccc1)c1ccc(NC(=O)N2CCCCc3ccccc32)cc1 | 0.0119 |
| Cc1ncc(CN2CCC(Nc3ccc4nnnn4n3)C(C)C2)s1 (stereo unspecified) | 0.449 |
| NC[C@H]1CC[C@@H](C(=O)Nc2ccc3[nH]ncc3c2)O1 | 0.959 |
| CCN1CCN(S(=O)(=O)Cc2ccc(Cl)c(Cl)c2)CC1 | 0.177 |
